targetEntity: recombinant human ACC2 (Homo sapiens (Human), UniProt O00763)
Sequence (O00763 27-2458): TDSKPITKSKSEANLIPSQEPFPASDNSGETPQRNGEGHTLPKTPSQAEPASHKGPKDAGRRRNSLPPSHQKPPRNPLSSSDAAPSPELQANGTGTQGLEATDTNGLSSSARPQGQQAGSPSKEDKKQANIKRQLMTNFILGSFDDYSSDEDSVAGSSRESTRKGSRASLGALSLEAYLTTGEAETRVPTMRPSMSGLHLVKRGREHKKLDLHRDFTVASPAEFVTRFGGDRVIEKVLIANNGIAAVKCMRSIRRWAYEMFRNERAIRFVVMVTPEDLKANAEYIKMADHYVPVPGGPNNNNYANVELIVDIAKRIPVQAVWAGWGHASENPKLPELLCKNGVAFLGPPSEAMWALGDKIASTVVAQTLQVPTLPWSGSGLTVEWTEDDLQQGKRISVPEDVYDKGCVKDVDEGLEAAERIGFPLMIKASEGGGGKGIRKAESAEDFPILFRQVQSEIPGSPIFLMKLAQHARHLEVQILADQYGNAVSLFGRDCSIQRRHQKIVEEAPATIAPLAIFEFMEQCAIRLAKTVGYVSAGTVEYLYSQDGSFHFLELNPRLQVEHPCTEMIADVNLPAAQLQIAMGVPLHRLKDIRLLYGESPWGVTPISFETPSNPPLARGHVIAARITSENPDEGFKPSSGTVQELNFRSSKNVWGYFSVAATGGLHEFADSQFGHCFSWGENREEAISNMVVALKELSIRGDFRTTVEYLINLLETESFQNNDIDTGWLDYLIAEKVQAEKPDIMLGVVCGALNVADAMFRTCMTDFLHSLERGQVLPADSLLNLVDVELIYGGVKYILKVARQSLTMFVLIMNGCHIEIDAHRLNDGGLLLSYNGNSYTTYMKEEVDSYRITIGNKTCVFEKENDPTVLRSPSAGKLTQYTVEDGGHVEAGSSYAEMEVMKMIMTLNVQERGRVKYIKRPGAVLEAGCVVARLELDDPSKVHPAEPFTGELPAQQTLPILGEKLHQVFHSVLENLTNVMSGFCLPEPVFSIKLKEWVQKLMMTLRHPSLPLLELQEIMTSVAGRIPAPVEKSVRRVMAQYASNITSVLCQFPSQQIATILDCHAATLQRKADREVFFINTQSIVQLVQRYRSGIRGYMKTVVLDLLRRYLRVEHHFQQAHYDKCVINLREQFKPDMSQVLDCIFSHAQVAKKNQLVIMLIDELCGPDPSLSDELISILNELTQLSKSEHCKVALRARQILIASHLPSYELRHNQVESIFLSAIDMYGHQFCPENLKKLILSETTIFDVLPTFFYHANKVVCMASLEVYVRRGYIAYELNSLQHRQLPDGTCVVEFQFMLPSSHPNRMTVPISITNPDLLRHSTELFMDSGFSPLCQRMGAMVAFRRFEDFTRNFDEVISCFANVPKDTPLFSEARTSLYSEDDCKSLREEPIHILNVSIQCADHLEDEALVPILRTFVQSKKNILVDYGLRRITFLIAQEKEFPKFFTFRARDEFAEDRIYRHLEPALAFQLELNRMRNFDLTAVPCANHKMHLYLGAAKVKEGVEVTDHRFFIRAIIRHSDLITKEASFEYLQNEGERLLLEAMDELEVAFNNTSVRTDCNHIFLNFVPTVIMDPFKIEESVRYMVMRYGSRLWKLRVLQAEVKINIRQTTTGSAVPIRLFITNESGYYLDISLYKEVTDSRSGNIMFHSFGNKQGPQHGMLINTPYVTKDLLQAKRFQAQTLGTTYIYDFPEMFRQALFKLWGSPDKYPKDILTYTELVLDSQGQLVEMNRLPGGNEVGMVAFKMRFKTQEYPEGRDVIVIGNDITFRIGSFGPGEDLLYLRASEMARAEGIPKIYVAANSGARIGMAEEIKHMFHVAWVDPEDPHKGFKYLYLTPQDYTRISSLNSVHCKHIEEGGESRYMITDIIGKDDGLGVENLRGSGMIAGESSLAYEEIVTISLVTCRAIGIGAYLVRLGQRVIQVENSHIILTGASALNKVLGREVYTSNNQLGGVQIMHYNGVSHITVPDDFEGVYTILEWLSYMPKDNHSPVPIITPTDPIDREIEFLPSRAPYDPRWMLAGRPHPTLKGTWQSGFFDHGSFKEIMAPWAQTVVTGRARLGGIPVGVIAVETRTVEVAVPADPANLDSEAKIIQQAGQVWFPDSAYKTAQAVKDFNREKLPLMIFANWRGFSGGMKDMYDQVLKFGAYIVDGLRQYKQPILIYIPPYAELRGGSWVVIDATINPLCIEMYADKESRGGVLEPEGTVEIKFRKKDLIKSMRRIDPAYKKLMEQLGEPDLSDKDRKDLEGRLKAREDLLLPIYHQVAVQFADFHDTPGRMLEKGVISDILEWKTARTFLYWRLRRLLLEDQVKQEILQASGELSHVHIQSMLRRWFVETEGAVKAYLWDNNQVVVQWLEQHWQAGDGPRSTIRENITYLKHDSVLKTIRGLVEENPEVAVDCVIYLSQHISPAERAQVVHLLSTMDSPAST
measurementNotes: Measurement of inhibitory activity on human ACC2 (MALDI-TOF MS, acetyl CoA to malonyl CoA conversion)
Format: biochemical
testParameters: Tables 155-159
Measured pIC50 by item
// pIC50 here means minus log10 of the molar concentration (mol/L)

Please review the entries below; each comes with its answer.
                                   compound  valuereported
0  CC(=O)N[C@@H](C)CO[C@H]1CC[C@H](Oc2cc3sc(OC4CC(F)(F)C4)nc3cn2)CC1 [Compound I-219]           8.40
1  CC(=O)N[C@@H](C)CO[C@H]1C[C@H](COc2ncnc(OCc3ccccc3)c2Cl)C1 [Compound I-376]           8.15

Incoming: I'd like to know its pIC50. The compound in question is CC(=O)N[C@@H](C)CO[C@H]1C[C@H](COc2nccc3c2cnn3Cc2ccccc2)C1 [Compound I-387]
Outgoing: 6.41

Incoming: Then this compound: CC(=O)N[C@@H](C)CO[C@H]1C[C@H](COc2ncnc3c2ccn3Cc2cccc(F)c2)C1 [Compound I-473]
Outgoing: 7.55

Incoming: Would you mind doing COc1cc(OCc2ccccc2)cc2c1nc(O[C@H]1CC[C@H](OC[C@H](C)NC(C)=O)CC1)n2C [Compound I-666] as well?
Outgoing: 6.53

Incoming: Thanks! And CC(=O)N[C@@H](C)CO[C@H]1C[C@H](COc2ccc3nc(OCC4CC4)n(C)c3c2)C1 [Compound I-489] ?
Outgoing: 6.07

Incoming: Input CC(=O)N[C@@H](C)CO[C@H]1C[C@H](COc2nccc(-c3csc(C)n3)c2C)C1 [Compound I-333]
Outgoing: 6.69

----------
// values below are reported log10(IC50)
targetEntity: recombinant human ACC2 (Homo sapiens (Human))
measurementNotes: Measurement of inhibitory activity on human ACC2 (MALDI-TOF MS, acetyl CoA to malonyl CoA conversion)
Format: biochemical
testParameters: Table 154
Response schema: value (number) is log10 of IC50 in units of nM.

Consider the reported log10(IC50) for these molecules:
                                   molecule  valuereported
0  CC(=O)N[C@H]1CCC[C@@H]1Oc1ccc(Oc2ccc3nc(C(C)C)sc3c2Cl)cn1 [Compound I-106]           1.96
1  CC(=O)N[C@@H](C)[C@@H](C)Oc1cnc(Oc2ccc3nc(C(C)(F)F)sc3c2F)cn1 [Compound I-057]           2.22
2  CC(=O)N[C@@H](C)CO[C@H]1CC[C@H](Oc2ncc3cc(Br)ccc3n2)CC1 [Compound I-079]           3.25
3  CC(=O)N[C@@H](C)COc1cnc(Oc2c(F)cc3nc(C(C)C)sc3c2F)cn1 [Compound I-032]           1.72
4  CC(=O)N[C@@H](C)COc1ccc(Oc2ccc3c(c2Cl)CCN(C(=O)OC(C)(C)C)C3)cn1 [Compound I-022]           3.10

Incoming: Item CC(=O)N[C@@H](C)CO[C@H]1C[C@H](COc2ccc3nc(C(C)(C)O)sc3c2F)C1 [Compound I-099] with recombinant human ACC2 (Homo sapiens (Human)) - log10(IC50)?
Outgoing: 2.17

Incoming: Quick one: CC(=O)N[C@@H](C)CO[C@H]1C[C@H](COc2ccc3nc(C(C)(F)F)sc3c2F)C1 [Compound I-097]
Outgoing: 1.99

Incoming: Another molecule: CCOc1nc2ccc(OC[C@H]3C[C@H](OC[C@H](C)NC(C)=O)C3)c(Cl)c2s1 [Compound I-089]
Outgoing: 1.79

Incoming: Same for CC(=O)N[C@@H](C)[C@@H](C)Oc1cnc(Oc2ccc3nc(C(C)C)sc3c2F)cn1 [Compound I-049]
Outgoing: 2.13

Incoming: # iterate: CC(=O)N[C@@H](C)CC(=O)c1ccc(Oc2ccc(OCC3CC3)cc2Cl)nc1 [Compound I-008]
Outgoing: 2.34

Incoming: Likewise for CC(=O)N[C@@H](C)COc1cnc(Oc2ccc3nc(C(C)(F)F)sc3c2C#N)cn1 [Compound I-041] ?
Outgoing: 2.01

Incoming: Now try CCCc1ccc(Oc2ccc(OC[C@H](C)NC(C)=O)cc2)c(Cl)c1 [Compound I-005] .
Outgoing: 2.26

Incoming: And CC(=O)N[C@@H](C)[C@H](C)Oc1cnc(Oc2ccc3nc(C(C)C)sc3c2F)cn1 [Compound I-048] ?
Outgoing: 1.92
